# maps each entry to its koff
target_system: T1, human α-CGRP 1-37 (WT) (human, C-terminal amide; N-terminal biotin when captured on the SA chip; 125I-labelled in the radioligand assay)
T1 construct: also called α-human
T1 peptide: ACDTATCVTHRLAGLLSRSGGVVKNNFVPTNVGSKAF
assay_summary: Biacore, 37°C, Fab over CGRP on SA chip
Record the result as number plus unit.

Consider the reported koff for these binders:
G1 variant M28 Fab (Fab, V domains shown, Fab; constant domains as m1) VH: EVQLVESGGGLVQPGGSLRLSCAASGFTFSNYWISWVRQAPGKGLEWVAEIRSRSDNSATHYAEAVKGRFTISRDNAKNSLYLQMNSLRAEDTAVYYCTVYFDYGLAIQNYWGQGTLVTVSS VL: EIVLTQSPATLSLSPGERATLSCKASKNVDTYVSWYQQKPGQAPRLLIYGASNRYLGIPARFSGSGSGTDFTLTISSLEPEDFAVYYCSQSYNYPYTFGQGTKLEIK ... 9.96e-05 s⁻¹
G1 variant M84 Fab (Fab, V domains shown, Fab; constant domains as m1) VH: EVQLVESGGGLVQPGGSLRLSCAASGFTFSNYWISWVRQAPGKGLEWVAEIRSNSDNSATHYAEAVKGRFTISRDNAKNSLYLQMNSLRAEDTAVYYCTVYFDYGLAIQNYWGQGTLVTVSS VL: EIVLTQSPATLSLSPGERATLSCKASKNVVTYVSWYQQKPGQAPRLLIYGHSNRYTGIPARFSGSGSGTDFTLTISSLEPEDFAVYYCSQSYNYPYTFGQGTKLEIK ... 0.00108 s⁻¹
G1 variant M4 Fab (Fab, V domains shown, Fab; constant domains as m1) VH: EVQLVESGGGLVQPGGSLRLSCAASGFTFSNYWISWVRQAPGKGLEWVAEIRSESDASATHYAEAVKGRFTISRDNAKNSLYLQMNSLRAEDTAVYYCAVYFDYGLAIQNYWGQGTLVTVSS VL: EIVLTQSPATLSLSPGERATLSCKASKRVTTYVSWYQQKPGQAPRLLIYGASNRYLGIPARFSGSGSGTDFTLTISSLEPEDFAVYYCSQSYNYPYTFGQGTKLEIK ... 6.95e-05 s⁻¹

Request: Supply koff value. Item: G1 variant M23 Fab (Fab, V domains shown, Fab; constant domains as m1) VH: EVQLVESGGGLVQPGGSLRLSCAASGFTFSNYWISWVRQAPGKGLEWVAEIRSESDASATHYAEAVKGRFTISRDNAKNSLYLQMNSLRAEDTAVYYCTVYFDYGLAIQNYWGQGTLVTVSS VL: EIVLTQSPATLSLSPGERATLSCKASKGVTTYVSWYQQKPGQAPRLLIYGASNRYLGIPARFSGSGSGTDFTLTISSLEPEDFAVYYCSQSYNYPYTFGQGTKLEIK
Response: 0.00013 s⁻¹

Request: Supply koff value. Item: G1 variant M46 Fab (Fab, V domains shown, Fab; constant domains as m1) VH: EVQLVESGGGLVQPGGSLRLSCAASGFTFSNYWISWVRQAPGKGLEWVAEIRSKSDNEATFYAEAVKGRFTISRDNAKNSLYLQMNSLRAEDTAVYYCTVYFDYGLAIQNYWGQGTLVTVSS VL: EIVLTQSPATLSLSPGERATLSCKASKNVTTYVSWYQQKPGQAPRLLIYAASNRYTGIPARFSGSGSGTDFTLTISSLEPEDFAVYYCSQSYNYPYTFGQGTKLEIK
Response: 0.000539 s⁻¹

Request: Supply koff value. Item: G1 variant M53 Fab (Fab, V domains shown, Fab; constant domains as m1; printed L561 read as L56I) VH: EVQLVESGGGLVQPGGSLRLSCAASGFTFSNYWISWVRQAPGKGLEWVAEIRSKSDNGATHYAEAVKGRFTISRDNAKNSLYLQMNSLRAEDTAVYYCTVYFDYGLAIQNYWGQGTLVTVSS VL: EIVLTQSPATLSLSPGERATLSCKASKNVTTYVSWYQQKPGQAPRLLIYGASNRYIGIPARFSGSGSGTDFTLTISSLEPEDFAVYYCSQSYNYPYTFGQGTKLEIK
Response: 0.000374 s⁻¹

Request: Supply koff value. Item: G1 variant M69 Fab (Fab, V domains shown, Fab; constant domains as m1; printed L561 read as L56I) VH: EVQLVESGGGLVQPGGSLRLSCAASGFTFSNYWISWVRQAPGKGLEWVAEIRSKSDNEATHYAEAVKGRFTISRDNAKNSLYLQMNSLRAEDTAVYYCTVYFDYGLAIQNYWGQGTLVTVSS VL: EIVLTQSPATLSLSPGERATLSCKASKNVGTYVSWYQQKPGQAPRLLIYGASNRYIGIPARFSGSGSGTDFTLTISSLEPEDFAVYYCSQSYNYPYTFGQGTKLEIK
Response: 0.000733 s⁻¹
